Data origin, for the record: ChEMBL document CHEMBL1201862

# System: M14
# assay: NCI tumour cell line growth inhibition, 48 h
Active and inactive are the calls of the source. Cut-off read from the data, not from the text of the source: active = GI50 up to about 1.1 µM and inactive = higher.
So I've got a bunch of compounds here, and I need their GI50 values.

compound="Cc1cccc(C(C)C)c1NC(=O)CC1Sc2ccccc2NC1=O (stereo unspecified)" result="50.1 µM (inactive)"
compound=N#Cc1nc(-c2ccccn2)c(-c2ccccn2)nc1C#N result="1.59 µM (inactive)"
compound=Cc1nc2ccccc2n1Cc1nnc(-c2ccccc2)o1 result="> 100 µM (inactive)"

Give GI50 for each listed item.
1. CC(=O)NC1C(=O)CC(c2ccccc2)N(C)C1c1ccccc1 (stereo unspecified)
2. CC(C)(C)c1cc(C2COC(=O)COCC(=O)OCCOCCOCCO2)cc(C(C)(C)C)c1O (stereo unspecified)
3. O=Nc1c(-c2c(O)[nH]c3ccccc23)[nH]c2ccccc12
4. O=C1O/C(=C(/Cl)c2c3ccccc3cc3ccccc23)c2ccccc21
5. Cn1c(=O)oc2cc(C(=O)CSC(=S)N3CCCCCC3)ccc21
6. CC1(C)C=N[N+]2(C)C3C=CC(CC3)C12 (stereo unspecified)

Result string:
1: 61 µM (inactive); 2: 19.4 µM (inactive); 3: 5.61 µM (inactive); 4: 21.4 µM (inactive); 5: > 100 µM (inactive); 6: > 100 µM (inactive)

Give GI50 for each listed item.
1. O=C1CCCC2C3CC(CN12)C1CCCCN1C3.[O-][Cl+3]([O-])([O-])O (stereo unspecified)
2. CN1C(c2ccccc2)CC(=NOCc2ccccc2)CC1c1ccccc1 (stereo unspecified)

Result string:
["> 100 µM (inactive)", "42.5 µM (inactive)"]

* * *

# System: LOX IMVI
# assay: NCI tumour cell line growth inhibition, 48 h
Active and inactive are the calls of the source. Rule as the data show it: active = GI50 up to about 1.1 µM and inactive = higher.
measure: GI50

Before answering, review these 6 worked examples.
molecule="CC1C(C#N)(C#N)C(C#N)=C(N)C1(Cl)[N+](=O)[O-] (stereo not given)" result="5.32 µM (inactive)"
molecule=COc1cc(C2C3=C(CCCC3=O)N(c3ccc(C)cc3)C3=C2C(=O)CCC3)c([N+](=O)[O-])cc1OC result="83.6 µM (inactive)"
molecule=O=C(CCC1CCCCC1)NCc1ccc(C(=O)O)cc1 result="> 100 µM (inactive)"
molecule=Cc1cc(=O)n2nc(CSc3nnc(S)s3)sc2n1 result="> 100 µM (inactive)"
molecule=O=C1C=C(Br)c2c(Br)sc(Br)c21 result="2.37 µM (inactive)"
molecule=CCOC(=O)N/N=C(/OCC)c1ccccc1 result="> 100 µM (inactive)"

Give GI50 for each listed item.
1. C=C(COC(C)=O)CC(OC(C)=O)c1ccccc1 (stereo not given)
2. CC1CCC(C(C)C2C(O)CC3C4CC=C5CC(O)CCC5(C)C4CCC32C)NC1 (stereo not given)
3. Cc1ccsc1/C=N/Nc1nc2ccccc2s1
4. C=C(C(=O)OC)[C@@H]1C[C@@H](OC(C)=O)C2=C[C@H](C[C@@]3(C)O[C@@H]3C3=CC(C)=C(O3)[C@H]1OC(C)=O)OC2=O

Result string:
> 100 µM (inactive)
21.3 µM (inactive)
23.9 µM (inactive)
16.3 µM (inactive)

* * *

# System: NCI-H226
# assay: NCI tumour cell line growth inhibition, 48 h
The source made the active and inactive calls. Cut-off read from the data, not from the text of the source: active = GI50 up to about 1.1 µM and inactive = higher.
So I've got a bunch of compounds here, and I need their GI50 values.

Before answering, review these 4 worked examples.
compound=Nc1ccc(OCCCc2c(-c3ccccc3)[nH]c(N)nc2=O)cc1 result="31 µM (inactive)"
compound="COC(=O)C1C2CC3C(OC(=O)C31)C2I (configuration not stated)" result="> 100 µM (inactive)"
compound="CC(=O)N1C(c2[nH]c3ccccc3c2-c2ccccc2)CCN1c1ccccc1 (configuration not stated)" result="> 10 µM (inactive)"
compound=Cc1cc(C)nc(NS(=O)(=O)c2ccc(Nc3c4ccccc4nc4ccc(C(=O)Nc5ccc(S(N)(=O)=O)cc5)cc34)cc2)n1 result="> 100 µM (inactive)"

Give GI50 for each listed item.
1. CC/C=N\N1C(N)=C(C#N)C(C#N)(C#N)C1CC (configuration not stated)
2. CC(CC[C@@]1(O)OC2C[C@H]3[C@@H]4CC[C@H]5CC(OC6OC(CO)C(OC7OC(CO)C(O)C(OC8OCC(O)C(O)C8O)C7OC7OC(CO)C(O)C(O)C7O)C(O)C6O)[C@H](O)CC5(C)[C@H]4CCC3(C)C2[C@@H]1C)COC1OC(CO)C(O)C(O)C1O (some centres not stated)
3. NC(=O)c1nnc2c(F)cccc2c1N
4. Cc1cccc(C(C)(C)C)c1NC(=O)C(=O)C(C(=O)/C=C\c1ccccc1)C1OC(=O)c2ccccc21 (configuration not stated)
5. CCCCCCCCCOC(=O)c1cnc(Cl)cn1

Result string:
1: > 100 µM (inactive); 2: 13.5 µM (inactive); 3: 46.6 µM (inactive); 4: > 100 µM (inactive); 5: 18.2 µM (inactive)

Give GI50 for each listed item.
1. CN(C)c1ccc(/C=C2\Oc3cc(O)ccc3C2=O)cc1
2. O=C(O)Cc1ccc2c(c1)/C(=C1/Nc3ccccc3C1=O)C(=O)N2
3. CCOC(=O)c1[nH]c2cccc3c2c1CC(Br)C3=O (configuration not stated)
4. O=C1OCC(C(=O)c2cccc(O)c2)C1=O (configuration not stated)

Result string:
> 100 µM (inactive)
60.8 µM (inactive)
17.4 µM (inactive)
> 100 µM (inactive)
